Please go through the items and note down their self-cleavage.
B1: OR4K15 (parent)
chain: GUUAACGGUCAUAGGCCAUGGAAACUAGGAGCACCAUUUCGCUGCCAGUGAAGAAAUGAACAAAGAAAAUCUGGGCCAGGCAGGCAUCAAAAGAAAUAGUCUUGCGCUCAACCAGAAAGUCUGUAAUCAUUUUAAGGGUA

Variants of: B1
method-notes: self-cleavage, relative activity (ratio to wild type); higher = more cleavage; in vitro, sequencing; the parent is a self-cleaving ribozyme

Need self-cleavage, item A60U A111G
0.05

# iterate: A11G A27C
0.61

Another: U9G U72A
0.19

Try this variant next: A30C
1.6

Subsequent entry: A95G G99A
1.52

How about A82U A125C ?
0.29

And what about the variant A4G A55G ?
1.13

// repeat for U9C A60G and report
1.41

Follow-up entry: A22G A118U
1.05

# iterate: A68G U103G
0.04

Now the variant A60G A78U
0.35

Try this variant too: U9A A96G
1.16

Next variant up: A68G C105G
0.03

Repeat for the following variant: G104A A125G
0.01

Thanks! And C25G A27U ?
1.45

What do you have for A89U A129G ?
1.59

Entry to check: A86G U102G
0.39

Also U39C G138A , if possible.
1.78

Now give it for A86U C101A too.
0.09

Same again, this time with U19C G31A
0.83

Moving on to A110U U124A
0.9

Entry to check: A89G A94U
0.86

What would you report for C46U A89G ?
2.15

What about this variant? A11G C88U
1.54

Follow-up entry: U38C A89G
1.9

Do the same for A64U A68G please
2.16

Now the variant G84C A114G
0.05

Also A68C U131C , if possible.
0.94

// next record U2C A118G
0.88

Also need A98G A135C , thanks.
0.44

And the next one, A62C U108A ?
0.02

Param item: A30G A94G
1.29

Cool, now A22G A52U
1.02

For A23G A64G then?
0.58

Another: A89U A117U
0.7

Param item: A89U U102A
0.98

Follow-up entry: A51U U57G
0.64

Another variant: A82U A117G
0.28

Subsequent entry: U103C A110U
0.79

Same for U87C U131C
1.07

Next entry: A4G U122A
1.37

Try this variant next: U3C U132A
1.58

// query: A27U A36G
1.64

And the next one, A86G U122C ?
0.88

Now this one: A67G U103C
1.36

Lookup U87C
0.94

Now consider U26C A89G and answer again.
1.35

Okay, and A18U A23G ?
1.26

What would you report for U19C A67U ?
1.67

Same thing, different variant: C61U A126G
0.55

// query: A18G A94G
1

For A82U U100C then?
0.5

Cool, now A82C A90G
0.15

// next record G106C U108C
0

Now try A51G A68G .
0.71

Okay, and A47U A67G ?
1.23

Also G115A A134G ?
0.12

Ok, now A36U U49C
2.04

Request: U12C U130C
0.95

Lookup A36U U97C
0.37

And then U49C U132A , what is it?
1.65

Another variant to look at: U38C A89U
2.15

Thanks! And A90G A96G ?
1.25

Likewise for A54G G123A ?
1.14

Could you do the same for A11U U133C , please?
1.36

Now give it for A11U A18G too.
1.38

// query: C46U
1.54

Lookup U26C A118C
0.51

// repeat for U124A U139C and report
1.26

Subsequent entry: U57A U70C
0.48

Would you kindly repeat that for G20U ?
1.53

# repeat for U72G U97G
0.3

Do the same for U133A please
1.32

And the next one, A54U U139C ?
1.45

Request: C81A U132C
0.29

Now consider A30G G44A and answer again.
1.15
